- SUBJECT OF TEST: Full-length (FL)-PRMT5-MEP50 enzyme complex (Homo sapiens, UniProt O14744)
- Construct: Full-length (FL)-PRMT5-MEP50 enzyme complex (recombinant proteins from baculovirus-transfected Sf21 cells: FL-PRMT5; MW=73837 kDa and FL-MEP50; MW=38614); made in house; host or cells: baculovirus-transfected Sf21 cells
- Sequence (O14744 whole entry): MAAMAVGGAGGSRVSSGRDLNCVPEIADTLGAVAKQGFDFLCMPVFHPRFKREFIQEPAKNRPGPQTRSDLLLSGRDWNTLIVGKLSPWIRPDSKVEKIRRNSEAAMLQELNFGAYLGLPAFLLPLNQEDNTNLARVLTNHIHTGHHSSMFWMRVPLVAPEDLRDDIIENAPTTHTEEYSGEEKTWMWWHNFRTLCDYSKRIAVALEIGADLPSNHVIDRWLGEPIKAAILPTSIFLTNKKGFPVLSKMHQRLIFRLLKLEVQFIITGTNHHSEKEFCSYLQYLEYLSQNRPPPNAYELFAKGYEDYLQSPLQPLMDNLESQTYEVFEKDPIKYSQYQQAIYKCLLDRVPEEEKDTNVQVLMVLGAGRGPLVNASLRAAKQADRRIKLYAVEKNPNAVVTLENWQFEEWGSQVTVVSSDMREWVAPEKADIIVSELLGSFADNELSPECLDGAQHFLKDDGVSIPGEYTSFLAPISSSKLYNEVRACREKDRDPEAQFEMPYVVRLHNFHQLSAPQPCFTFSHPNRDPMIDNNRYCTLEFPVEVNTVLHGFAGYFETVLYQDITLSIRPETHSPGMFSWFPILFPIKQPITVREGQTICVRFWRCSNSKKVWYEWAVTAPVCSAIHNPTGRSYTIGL
- Sequence (Q9BQA1 whole entry partner): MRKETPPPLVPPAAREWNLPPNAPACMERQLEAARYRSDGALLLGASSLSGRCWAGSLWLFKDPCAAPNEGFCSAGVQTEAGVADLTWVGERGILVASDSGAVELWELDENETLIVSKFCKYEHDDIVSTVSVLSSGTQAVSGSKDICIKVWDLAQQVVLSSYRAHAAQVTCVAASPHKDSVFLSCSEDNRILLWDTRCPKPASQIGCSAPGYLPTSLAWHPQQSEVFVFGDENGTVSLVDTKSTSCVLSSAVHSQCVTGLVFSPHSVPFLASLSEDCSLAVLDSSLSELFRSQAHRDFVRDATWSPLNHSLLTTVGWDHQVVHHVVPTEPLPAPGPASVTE
- ASSAY EXPLANATION: PRMT5-MEP50 Enzyme Methylation Assay (Version A)
- Assay type: biochemical
- RUN PARAMETERS: single EC50 = 4 parameter single site sigmoidal fit; EC50 1 = first value of 7 parameter biphasic fit; read-out: Enzyme Methylation Assay Version A (EC50 or EC50 1)
pEC50: −log10 of the molar value.
EXPERIMENTAL ENDPOINT: pEC50

COMPOUND: O=C(c1cn2cc(C(F)F)ccc2n1)N1CC[C@]2(Cc3ccccc3CN2)[C@H](O)C1 [Example 41]
REPORTED RESULT: 9.29

COMPOUND: COCCOc1nc(Br)cn2cc(C(=O)N3CC[C@]4(Cc5ccccc5CN4)[C@H](O)C3)nc12 [Example 19]
REPORTED RESULT: 9.52

COMPOUND: Cc1cc(I)c2nc(C(=O)N3CC[C@]4(Cc5ccccc5CN4)[C@H](O)C3)cn2c1 [Example 203]
REPORTED RESULT: 9.07

COMPOUND: COc1nc(Br)cn2cc(C(=O)N3CC[C@]4(Cc5ccccc5CN4)[C@H](O)C3)nc12 [Example 8]
REPORTED RESULT: 8.81

COMPOUND: O=C(c1cn2cc(Br)cc(C(F)(F)F)c2n1)N1CC[C@]2(Cc3ccccc3CN2)[C@H](O)C1 [Example 55]
REPORTED RESULT: 9.09

COMPOUND: O=C(c1cc2ncc(C3CC3)cn2n1)N1CC[C@]2(Cc3ccccc3CN2)[C@H](O)C1 [Example 70]
REPORTED RESULT: 9.57

COMPOUND: O=C(c1cn2c(n1)C(C1CCOC1)CC(C(F)(F)F)C2)N1CC[C@]2(Cc3ccccc3CN2)[C@H](O)C1 (single isomer, unassigned) [Example 160]
REPORTED RESULT: 8.02

COMPOUND: CC1CC1c1cnc2nc(C(=O)N3CC[C@]4(Cc5ccccc5CN4)[C@H](O)C3)cn2c1 (single isomer, unassigned) [Example 74]
REPORTED RESULT: 7.86

COMPOUND: CO[C@H](C)c1cc(N2CC3(CCCO3)C2)cn2cc(C(=O)N3CC[C@]4(Cc5ccccc5CN4)[C@H](O)C3)nc12 [Example 236]
REPORTED RESULT: 8.15

COMPOUND: O=C(c1cn2cc(C3CC3(F)F)cnc2n1)N1CC[C@]2(Cc3ccccc3CN2)[C@H](O)C1 (single isomer, unassigned) [Example 77]
REPORTED RESULT: 8.84

P. COC(C)c1cc(Br)cn2cc(C(=O)N3CC[C@]4(Cc5cc(Cl)ccc5CN4)[C@H](O)C3)nc12 (single isomer, unassigned) [Example 225]
Q. CC(n1ccc(C(=O)N2CC[C@]3(Cc4ccccc4CN3)[C@H](O)C2)cc1=O)C(F)(F)F (single isomer, unassigned) [Example 103]
Query string: // pick larger pEC50 from pair: P vs Q Output the label that corresponds to your choice.
Result string: P

====

- System: symmetric dimethylation of arginine (SDMA) of PRMT5 substrates in MCF-7 cells
- ASSAY EXPLANATION: PRMT5 Cell Target Engagement (TE) Assay
- Type: cell-based
- RUN PARAMETERS: 3 days treatment, SDMA high content imaging
EXPERIMENTAL ENDPOINT: EC50 (nM)

1. O=C(c1cn2cc(Br)nc(OCC3CCCO3)c2n1)N1CC[C@]2(Cc3ccccc3CN2)[C@H](O)C1 (single isomer, unassigned) [Example 101]
2. N#CC1(c2cnc3nc(C(=O)N4CC[C@]5(Cc6ccccc6CN5)[C@H](O)C4)cn3c2)CC12CC2 (single isomer, unassigned) [Example 83]
Query string: 1 or 2 : whose EC50 is greater? Use the label to indicate which entry you chose.
Result string: 2

a. COC(C)c1cc(C)c2nc(C(=O)N3CC[C@]4(Cc5ccccc5CN4)[C@H](O)C3)cn2c1 (single isomer, unassigned) [Example 122]
b. O=C(c1cn2c(n1)C(C1CCOC1)CC(C(F)(F)F)C2)N1CC[C@]2(Cc3ccccc3CN2)[C@H](O)C1 (single isomer, unassigned) [Example 163]
Query string: Hi there! Just curious which has the higher EC50 between a and b . Kindly give the label for the entry you pick.
Result string: b
(b: 1590 nM, a: 5.56 nM)

====

- SUBJECT OF TEST: Full-length (FL)-PRMT5-MEP50 enzyme complex (Homo sapiens)
- Construct: Full-length (FL)-PRMT5-MEP50 enzyme complex (recombinant proteins from baculovirus-transfected Sf21 cells: FL-PRMT5; MW=73837 kDa and FL-MEP50; MW=38614); made in house; host or cells: baculovirus-transfected Sf21 cells
- ASSAY EXPLANATION: PRMT5-MEP50 Enzyme Methylation Assay (Version B)
- Type: biochemical
- RUN PARAMETERS: single EC50 = 4 parameter single site sigmoidal fit; EC50 1 = first value of 7 parameter biphasic fit; read-out: Enzyme Methylation Assay Version B (EC50 or EC50 1)
- Description: PRMT5-MEP50 Enzyme Methylation Assay (Version B) PRMT5/MEP50 biochemical assay is a direct measurement of the methylation activity of the enzyme complex on a short peptide substrate derived from the N-terminus of H4 histone. Methylation experiment was performed with recombinant protein. The assessment of inhibitory effect (IC50) of small molecules was measured by the effectiveness of the compounds to inhibit this reaction. […]
pEC50: −log10 of the molar value.
EXPERIMENTAL ENDPOINT: pEC50

These solved cases illustrate the format of a correct answer.
COMPOUND: O=C(c1ccc(C(F)(F)F)nc1Cl)N1CCC2(CC1)Cc1ccccc1CN2 [Example 116]
pEC50: 6.09
--
COMPOUND: CCOc1cc(C(=O)N2C3CCC2COC3)ccc1C(=O)N1CCC2(Cc3ccccc3CN2)C(O)C1 (single isomer, unassigned) [Example 88]
pEC50: 6.02
--
COMPOUND: O=C(c1ccc(C(=O)N2C3CCC2COC3)cc1)N1CCC2(Cc3ccccc3CN2)C(O)C1 (single isomer, unassigned) [Example 149]
pEC50: 6.53

a. CC(=O)N1CCC(Nc2cc(C(=O)N3CCC4(CC3)Cc3ccc(Cl)cc3CN4)ncn2)CC1 [Example 53]
b. CC(=O)N1CCC(Nc2cc(C(=O)N3CCC4(Cc5ccccc5CN4)C(O)C3)ncn2)CC1 (single isomer, unassigned) [Example 93]
Query string: Form: Entry with minimum pEC50 (choose one): a / b Selection: enter the item's label.
Result string: a

====

- SUBJECT OF TEST: Full-length (FL)-PRMT5-MEP50 enzyme complex (Homo sapiens, UniProt O14744)
- Construct: Full-length (FL)-PRMT5-MEP50 enzyme complex (recombinant proteins from baculovirus-transfected Sf21 cells: FL-PRMT5; MW=73837 kDa and FL-MEP50; MW=38614); made in house; host or cells: baculovirus-transfected Sf21 cells
- ASSAY EXPLANATION: PRMT5-MEP50 Enzyme Methylation Assay (Version A)
- Format: biochemical
- RUN PARAMETERS: single EC50 = 4 parameter single site sigmoidal fit; EC50 1 = first value of 7 parameter biphasic fit; read-out: Enzyme Methylation Assay Version A (EC50 or EC50 1)
pEC50: −log10 of the molar value.
EXPERIMENTAL ENDPOINT: pEC50

COMPOUND: O=C1Nc2cc(C(=O)N3CC[C@]4(Cc5ccccc5CN4)[C@H](O)C3)ccc2OC1C1CC1 (single isomer, unassigned) [Example 107]
pEC50: 9.56

a. O=C(c1cc2n(n1)CCS(=O)(=O)C2)N1CC[C@]2(Cc3ccccc3CN2)[C@H](O)C1
b. O=C(c1cn2cc(F)cc(Br)c2n1)N1CC[C@]2(Cc3ccccc3CN2)[C@H](O)C1
c. O=C(c1cn(C2CC2)cn1)N1CC[C@]2(Cc3ccccc3CN2)[C@H](O)C1
d. COc1nccc(-c2cc([C@@H](C)OC)c3nc(C(=O)N4CC[C@]5(Cc6ccccc6CN5)[C@H](O)C4)cn3c2)n1
e. O=C(c1cn(-c2ccc(F)cc2)cn1)N1CC[C@]2(Cc3ccccc3CN2)[C@H](O)C1
Query string: List items by pEC50 in falling order. A ranking is expressed here by listing the labels in the requested order.
Result string: d, b, c, e, a
(d: 9.43, b: 9.12, c: 6.37, e: 6.04, a: 5.72)

A. N#CC1(c2cnc3nc(C(=O)N4CC[C@]5(Cc6ccccc6CN5)[C@H](O)C4)cn3c2)CC12CC2 (single isomer, unassigned) [Example 82]
B. COC(C)c1cnc2nc(C(=O)N3CC[C@]4(Cc5ccccc5CN4)[C@H](O)C3)cn2c1 (single isomer, unassigned) [Example 136]
C. O=C(c1cn2cc(Br)nc(OCC3CCCO3)c2n1)N1CC[C@]2(Cc3ccccc3CN2)[C@H](O)C1 (single isomer, unassigned) [Example 101]
Query string: Task field, ranking: reported pEC50, descending order. Returns: the labels arranged in the requested order.
Result string: C, A, B

A. O=C(c1cn2cc(Br)cc(F)c2n1)N1CC[C@]2(Cc3ccccc3CN2)[C@H](O)C1
B. COC(C)c1cnc2nc(C(=O)N3CC[C@]4(Cc5ccccc5CN4)[C@H](O)C3)cn2c1 (single isomer, unassigned) [Example 137]
C. Cc1nn(C)c2[nH]c(C(=O)N3CC[C@]4(Cc5ccccc5CN4)[C@H](O)C3)cc(=O)c12
Query string: // sort entries: pEC50, high to low Use the labels to give the requested order.
Result string: A, B, C
(A: 9.14, B: 8.72, C: 5.54)

Data origin, for the record: patent US12441730B2
